# system: RXRβ (UniProt P28704)
# stated conditions: read-out: Potency
quantity: EC50 (nM)
Give bare numbers, in nM.

IN: # return recorded EC50 for entry Cc1cc2c(cc1/C(=N/O)c1ccc(C(=O)O)cc1)C(C)(C)CCC2(C)C
OUT: 8
